Each entry below carries its recorded Selectivity ratio.
species: Homo sapiens; assay: Selectivity for human GSHR1a over human motilin receptor

// below: answered compounds
1. CC[C@H](C)[C@@H]1NCCOc2ccccc2CCCNC(=O)[C@@H](Cc2ccc(F)cc2)NC(=O)[C@@H](C)N(C)C1=O: > 7700
2. CCC[C@@H]1NCCOc2ccccc2CCCNC(=O)[C@@H](Cc2ccc(O)cc2)NC(=O)CN(C)C1=O: > 100

# evaluate next
Q) For "CC[C@H](C)[C@@H]1NCCCc2ccccc2/C=C\CNC(=O)[C@@H](Cc2ccccc2)NC(=O)[C@@H](C)N(C)C1=O" , write its Selectivity ratio.
A) > 800
